Numbers sourced from patent EP0022634A1.

- Test system: mucous membrane of the stomach
- protocol_text: Action of causing trouble to the mucous membrane of the stomach (ulcer index)
- Type: in vivo, Male S.D. rats
- measurement_parameters: oral dosage 400 mg/kg in propylene glycol; fasted rats
- Experimental: Male S.D. rats (7 weeks old) were caused to fact for 24 hours while allowing them to drink water freely. A test compound dissolved in propylene glycol was orally administered to these rats, and these rats were kept while causing them to fast. Then, the rats were knocked out to death, and lesions generated in the stomach were measured in the following manner. Ten minutes before killing the rats, 1% Evans blue was intravenously injected to the rats in a dose of 0.5 ml/rat to stain their body. […]
# Incidence per entry
Expressed in %, but write only the number.

Consider the reported Incidence for these compounds:
{"columns": ["compound", "Incidence / %"],
 "data": [
  ["CC(C)c1[nH]c2ccccc2c1C(=O)c1cccnc1 [Comparison 3, reference compound]", 100],
  ["CCCCCC(C)n1c(C)c(C(=O)c2ccccc2)c2ccccc21 (centres unmarked)", 16.7],
  ["CCCCC(C)n1c(C)c(C(=O)c2ccccc2)c2ccccc21 (centres unmarked)", 0],
  ["CCOCC(C)n1c(C)c(C(=O)c2ccccc2)c2ccccc21 (centres unmarked)", 50]
]}

We now examine a further compound.
Incidence reading for COCC(C)n1c(C)c(C(=O)c2ccccc2)c2ccccc21 (centres unmarked) : 66.7
